Tested on: Caco-2 human colon epithelial cells
measurement.description: eGFP mRNA transfection, Caco-2 cells (96-well)
Assay type: cell-based
conditions: co-lipid DOPE, ratio 1/2; 150 ng eGFP mRNA; 24 h
measurement.label: Transfection efficiency (eGFP %) CaCO2

Sample answers from the record:
- molecule: "CCCCCCCCCCCCCCC(CCCCCCCCCCCCCC)CCCCC(CCCCCCCCCCCCCC)[n+]1ccn(CCO)c1.[Cl-] (stereo not shown)"
  study.system: "Caco-2 human colon epithelial cells"
  reported.value: "50-55%"
- molecule: "CCCCCCCCCCCCCCCCCCC(CCCCCCCCCC)[n+]1ccn(C)c1.[Cl-] (stereo not shown)"
  study.system: "Caco-2 human colon epithelial cells"
  reported.value: "5-10%"
- molecule: "CCCCCCCC/C=C\\CCCCCCCCC(CCCCC(CCCCCCCCCCCCCC)CCCCCCCCCCCCCC)[n+]1ccn(CCCC)c1.[Cl-] (stereo not shown)"
  study.system: "Caco-2 human colon epithelial cells"
  reported.value: "80-85%"
- molecule: "CCCCCCCCCCCCCCCCCCC(CCCCCCCCCCCCCCCCCC)n1cc[n+](C)c1.[Cl-] [MONI, reference compound]"
  study.system: "Caco-2 human colon epithelial cells"
  reported.value: "5-10%"
- molecule: "CCCCCCCC/C=C\\CCCCCCCCC(CCCCC(CCCCCCCCCCCCCC)CCCCCCCCCCCCCC)[n+]1ccn(C)c1.[Cl-] (stereo not shown)"
  study.system: "Caco-2 human colon epithelial cells"
  reported.value: "65-75%"
- molecule: "CCCCCCCCCCCCCCC(CCCCCCCCCCCCCC)CCCCC(CCCCCCCCCCCCCC)[n+]1ccn(C)c1.[Cl-] (stereo not shown)"
  study.system: "Caco-2 human colon epithelial cells"
  reported.value: "40-50%"
- molecule: "CCCCCCCCCCCCCCCCCCC(CCCCC(CCCCCCCCCCCCCC)CCCCCCCCCCCCCC)[n+]1ccn(C)c1.[Cl-] (stereo not shown)"
  study.system: "Caco-2 human colon epithelial cells"
  reported.value: "35-45%"
- molecule: "CCCCCCCCCCCCCCC(CCCCCCCCCCCCCC)[n+]1ccn(C)c1.[Cl-]"
  study.system: "Caco-2 human colon epithelial cells"
  reported.value: "5-10%"

**Q:** Name the recorded Transfection efficiency (eGFP %) CaCO2 of the molecule listed here: CCCCCCCC/C=C\CCCCCCCCC(CCCCCCCC/C=C\CCCCCCCC)[n+]1ccn(C)c1.[Cl-]
**A:** 15-25%

**Q:** Name the recorded Transfection efficiency (eGFP %) CaCO2 of the molecule listed here: CCCCCCCCCCCCCCCCCCC(CCCCCCCCCCCCCCCCCC)CCCCC(CCC(C)CCCC(C)C)[n+]1ccn(C)c1.[Cl-] (stereo not shown)
**A:** 15-20%

**Q:** Name the recorded Transfection efficiency (eGFP %) CaCO2 of the molecule listed here: CCCCCCCC/C=C\CCCCCCCCC(CCCCC(CCCCCCCCCCCCCC)CCCCCCCCCCCCCC)[n+]1ccn(CC)c1.[Cl-] (stereo not shown)
**A:** 65-75%

**Q:** Name the recorded Transfection efficiency (eGFP %) CaCO2 of the molecule listed here: CCCCCCC/C=C\CCCCCCCCC(CCCCCCCCCCCCCCCCCC)[n+]1ccn(C)c1.[Cl-] (stereo not shown)
**A:** 35-40%

**Q:** Name the recorded Transfection efficiency (eGFP %) CaCO2 of the molecule listed here: CCCCCCCCCCCCCCCCCCC(CCCCCCCCCCCCCCCCCC)CCCCC(CCCCCCCCCCCCCCCCCC)[n+]1ccn(C)c1.[Cl-] (stereo not shown)
**A:** 75-80%
